Reference for the values: the RNAGym collection of RNA variant scans (doi:10.1073/pnas.2313332121)

Catalogue of polymerase ribozyme fitness (log ratio) values
B1: TPR 5TU (parent)
chain: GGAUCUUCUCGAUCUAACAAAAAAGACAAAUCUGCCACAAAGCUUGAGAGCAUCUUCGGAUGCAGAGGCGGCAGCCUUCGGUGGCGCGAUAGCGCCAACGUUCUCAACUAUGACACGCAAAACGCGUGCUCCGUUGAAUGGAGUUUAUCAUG

Variants of: B1
Assay: polymerase ribozyme fitness, log enrichment relative to wild type (log ratio); higher = more active; in vitro selection for triplet polymerase activity
This sample holds only a part of the variants without activity.

[
  {
    "VAR": "A22U A41U A60U A106U",
    "CENSORING_SIGN": "=",
    "polymerase ribozyme fitness (log ratio)": -4.16
  },
  {
    "VAR": "G92C U104G",
    "CENSORING_SIGN": "=",
    "polymerase ribozyme fitness (log ratio)": -1.85
  },
  {
    "VAR": "A21U A28C U53A G88C",
    "CENSORING_SIGN": "≤",
    "polymerase ribozyme fitness (log ratio)": -4.2
  },
  {
    "VAR": "A40G A60C U61A G81C U90G G94A C123A U139A",
    "CENSORING_SIGN": "≤",
    "polymerase ribozyme fitness (log ratio)": -4.2
  },
  {
    "VAR": "C85G C96U C116A A137C",
    "CENSORING_SIGN": "≤",
    "polymerase ribozyme fitness (log ratio)": -4.2
  },
  {
    "VAR": "C54A C96G C103U C116A G136U",
    "CENSORING_SIGN": "=",
    "polymerase ribozyme fitness (log ratio)": -4.12
  },
  {
    "VAR": "C14G A73G G88C A98U C99G",
    "CENSORING_SIGN": "≤",
    "polymerase ribozyme fitness (log ratio)": -4.2
  },
  {
    "VAR": "A17G C93G C95U",
    "CENSORING_SIGN": "≤",
    "polymerase ribozyme fitness (log ratio)": -4.2
  },
  {
    "VAR": "A19G G50A",
    "CENSORING_SIGN": "=",
    "polymerase ribozyme fitness (log ratio)": -2.14
  },
  {
    "VAR": "A21U C32A C51U A73G U134G",
    "CENSORING_SIGN": "≤",
    "polymerase ribozyme fitness (log ratio)": -4.2
  },
  {
    "VAR": "G58C U144C",
    "CENSORING_SIGN": "=",
    "polymerase ribozyme fitness (log ratio)": 0.128
  }
]
